TARGET OR TEST SYSTEM: human GPR84 receptor (Homo sapiens)
Construct: host or cells: HEK293, transiently transfected
Sequence (Q9NQS5 whole entry): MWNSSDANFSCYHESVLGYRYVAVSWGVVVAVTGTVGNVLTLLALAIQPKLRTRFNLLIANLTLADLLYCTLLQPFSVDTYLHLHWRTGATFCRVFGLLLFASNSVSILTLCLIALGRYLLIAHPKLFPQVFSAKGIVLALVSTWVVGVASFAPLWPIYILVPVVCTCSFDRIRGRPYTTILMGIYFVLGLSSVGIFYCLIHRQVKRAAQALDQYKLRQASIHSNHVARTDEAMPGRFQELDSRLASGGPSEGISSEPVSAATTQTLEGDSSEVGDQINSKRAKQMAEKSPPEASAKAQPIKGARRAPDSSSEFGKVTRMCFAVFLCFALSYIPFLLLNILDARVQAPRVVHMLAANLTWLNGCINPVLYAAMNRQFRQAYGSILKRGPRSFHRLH
EXPERIMENT SUMMARY: Gαi biosensor BRET assay (GPR84 antagonism vs agonist ZQ-16)
Type: cell-based
RUN CONDITIONS: tested at 10 μM (concentration code D); HEK293 cells; 200 nmol/L agonist ZQ-16
Measured inhibition at 10 µM, listed per entry for reference.

Sample records with inhibition at 10 µM:
Reported inhibition at 10 µM ( Cc1cc(OCC(=O)N(C)CC(C)C)cc(=O)n1[C@H](C)c1ccc(C#CC2CC2)cc1 [Compound I-65] ) = > 75%

Reported inhibition at 10 µM ( Cc1cc(OCC(=O)N2CC3(CCO3)C2)cc(=O)n1[C@H](C)c1ccc(C#CC2CC2)cc1 [Compound I-289] ) = > 75%

Next:
Reported inhibition at 10 µM ( Cc1nc(OCC(=O)N2CCC[C@H]2C(=O)O)cc(=O)n1[C@H](C)c1ccc(C#CC2CC2)cc1 [Compound I-297] ) = > 75%
